The compounds listed here are annotated with their melting point.

Exercise: I'd like to know its melting point. The compound in question is CC(C)(C)C(=O)COc1ccc(S(=O)(=O)c2ccccc2)cc1
Solution: 105 to 108 °C

More entries:
Exercise: I'd like to know its melting point. The compound in question is CN1C(=O)C(C)(C)C(=O)Nc2cc(C#N)ccc21
Solution: 289 to 294 °C

Exercise: Then CCOC(=O)N1Cc2cc(NN=C(C)C)nnc2C(C)C1 (configuration not stated) ?
Solution: 140 to 142 °C

Exercise: Then CCCC(=O)c1cnc2c(OCCCN3CCCCC3)cccc2c1Nc1ccccc1C ?
Solution: 76 to 78 °C

Exercise: Then CCCNC(=O)NS(=O)(=O)c1cc2c(cc1OC)OCCC2CNC(=O)c1cc(Cl)ccc1OC (configuration not stated) ?
Solution: 159 to 160 °C

Exercise: Then Cc1cc(-c2ccccc2)nc(-c2cccc([N+](=O)[O-])c2)c1C(=O)O ?
Solution: 191 to 192 °C

Exercise: Then CCn1c(N(C)C)nc2cc(C(F)(F)F)c(Cl)c(N)c21 ?
Solution: 99 to 100 °C
